// data source = PubChem BioAssay (NCATS)

Test: Quantitative High-Throughput drug screen in 47 multiple myeloma cell lines against the NCATS MIPE library collection: JIM3_ECACC cell viability assay (AID 1918963; note: nearly all actives have a fitted effect of over 35% in size; note: potency is the fitted concentration of half-maximal effect)
Details: JIM3 myeloma viability, CellTiter-Glo ATP, 48 h; series mostly up to 45.8 µM
Records with an inconclusive call do not appear. Active and inactive are the calls of the source. Calls come from the whole dose curve; as a rule, active = well fitted cell-killing curve with a large enough effect; inconclusive = small, poorly fitted or top-dose-only effect; inactive = no such curve, though single readings can be large or run the other way.
Result Type: Potency

CCC(C)SSc1ncc[nH]1 (stereo not given) :: 14.8 µM (active)
Cc1c(C(=O)Nc2ccc(N3C[C@@H](C)O[C@@H](C)C3)nc2)cccc1-c1ccc(OC(F)(F)F)cc1 :: inactive
CC(=O)O[C@]1(C(C)=O)CC[C@H]2[C@@H]3C=C(Cl)C4=CC(=O)[C@@H]5C[C@H]5[C@]4(C)[C@@H]3CC[C@@]21C :: 23.5 µM (active)
C[C@@H]1[C@H](O)[C@@H](C)C=CC=CC=CC=CC=CC=CC=C[C@H](O[C@@H]2O[C@H](C)[C@H](O)[C@H](N)[C@@H]2O)C[C@@H]2O[C@](O)(C[C@@H](O)C[C@@H](O)[C@H](O)CC[C@@H](O)C[C@@H](O)CC(=O)O[C@H]1C)C[C@H](O)[C@@H]2C(=O)O :: 3.32 µM (active)
COc1cc2c(cc1OC)[C@@H]1Cc3ccc(OC)c(OC)c3CN1CC2 :: inactive
CCCCc1ccc(NS(=O)(=O)c2ccc(C)c(C(=O)N3CCN(c4cccc(C)c4C)CC3)c2)cc1 :: 16.6 µM (active)
COc1cc(F)c(C(C)C)cc1-c1ccc(C(F)(F)F)cc1CN1C(=O)O[C@H](c2cc(C(F)(F)F)cc(C(F)(F)F)c2)[C@@H]1C :: inactive
CC=C1C2C=C(C)CC1(N)c1ccc(=O)[nH]c1C2 (stereo not given) :: inactive
CC[C@H](C)C(=O)O[C@H]1C[C@H](O)C=C2C=C[C@H](C)[C@H](CC[C@@H](O)C[C@@H](O)CC(=O)O)[C@H]21 :: inactive
COc1ccc(-c2nc3ccc(C4=NNC(=O)CC4C)cc3[nH]2)cc1 (stereo not given) :: inactive
Cc1ccc(S(=O)(=O)Nc2nc3ccccc3nc2Nc2ccc3nsnc3c2)cc1 :: 1.82 µM (active)
CCC(=C(c1ccc(O)cc1)c1ccc(OCCNC)cc1)c1ccccc1 :: 20.9 µM (active)
COc1ccnc(CS(=O)c2nc3ccc(OC(F)F)cc3[nH]2)c1OC (stereo not given) :: inactive
COC1CCC(C(=O)c2ccc3nc4c(cc3c2)CCCO4)CC1 (stereo not given) :: 14.8 µM (active)
CNC(=O)[C@H](CC1=CN=C2C=CCC=C12)NC(=O)[C@@H](CC(=O)NO)CC(C)C :: 26.4 µM (active)

----------
Assay: Quantitative High-Throughput drug screen in 47 multiple myeloma cell lines against the NCATS MIPE library collection: PE2_PLB cell viability assay (AID 1919869); note: nearly all actives have a fitted effect of over 35% in size; note: potency is the fitted concentration of half-maximal effect
Conditions: PE2_PLB myeloma cells viability, ATP luminescence, 48 h; series mostly up to 45.8 µM
Records with an inconclusive call do not appear. Calls of active or inactive are those of the source. Calls come from the whole dose curve; as a rule, active = well fitted cell-killing curve with a large enough effect; inconclusive = small, poorly fitted or top-dose-only effect, or effect the other way; inactive = no such curve, though single readings can be large or run the other way.
Result Type: Potency

Cc1ccc(C2=Nc3ccc(Cl)cc3OC2)cc1 :: inactive
Cc1nc(C(=O)NCC(=O)O)c(O)c2ccc(Oc3ccccc3)cc12 :: inactive
NC(=O)c1nnn(Cc2cc(Cl)c(C(=O)c3ccc(Cl)cc3)c(Cl)c2)c1N :: 23.5 µM (active)
CN(C)CCOc1cc(-c2cn[nH]c2)ccc1NC(=O)C1COc2ccccc2O1 (stereo not drawn) :: 16.6 µM (active)
C=C[C@@H]1CN2CCC1C[C@@H]2C(O)c1ccnc2ccc(OC)cc12 (stereo partly drawn) :: inactive
CCC(=C(CC)c1ccc(O)cc1)c1ccc(O)cc1 :: 18.7 µM (active)
Cn1cnc(-c2cc3nccc(Oc4ccc(NC(=S)NC(=O)Cc5ccccc5)cc4F)c3s2)c1 :: 13.2 µM (active)
CNC(=O)c1ccc2c(C(=Nc3cccc(CN(C)C)c3)c3ccccc3)c(O)[nH]c2c1 :: 18.7 µM (active)
COc1ccc2c(c1)CC[C@H]1[C@@H]2CC[C@]2(C)[C@@H](NCCCCCCN3C(=O)C=CC3=O)CC[C@H]12 :: inactive
O=C(NC[C@H](O)CO)c1ccncc1Nc1ccc(I)cc1F :: 5.26 µM (active)
CN(C)c1ccccc1CN1CCCN(Cc2ccccc2N(C)C)C1c1ccncc1 :: 18.7 µM (active)
Clc1ccc(C2(c3ccc(-c4cn[nH]c4)cc3)CCNCC2)cc1 :: 11.8 µM (active)
CC(C)(CO)[C@@H](O)C(=O)NCCC(=O)O :: inactive

----------
Experiment: qHTS of pediatric cancer cell lines to identify multiple opportunities for drug repurposing: Primary screen for Rh18 cells (AID 1347102); note: nearly all actives have a fitted effect of over 65% in size
Conditions: Rh18 rhabdomyosarcoma viability, CellTiter-Glo luminescence, 48 h; series mostly up to 46 µM
Inconclusive results are not listed. Activity calls are given as the source filed them. The call rests on the fitted dose curve; in most records, active means well fitted cell-killing curve with a large enough effect; inconclusive means small, poorly fitted or top-dose-only effect; inactive means flat fitted curve, though single readings scatter.
Possible outcomes: active, inactive

Fc1ccc(CNc2ncnc3ccc(F)cc23)cc1 :: inactive
CC(=O)OCC(=O)[C@@]12OC(C)(C)O[C@H]1C[C@H]1[C@@H]3C[C@H](F)C4=CC(=O)C=C[C@]4(C)[C@@]3(F)[C@@H](O)C[C@@]12C :: inactive
Oc1ccc(C=Cc2cc(O)cc(O)c2)cc1 :: inactive
CN(C)CCN(C)C(=O)c1ccc(NC(=O)Nc2ccc(-c3nc(N4CCOCC4)c4ccn(CC(F)(F)F)c4n3)cc2)cc1 :: active
CCOC(=O)[C@@H](N)CCC(=O)N[C@@H](CSCc1ccccc1)C(=O)N[C@@H](C(=O)OCC)c1ccccc1 :: inactive
CCC(c1ccc(O)cc1)C(CC)c1ccc(O)cc1 (stereo not given) :: inactive
O=c1[nH]c(=O)n([C@H]2C[C@@H](O)[C@@H](CO)O2)cc1I :: inactive
CN1N=C(N)c2cn([C@@H]3O[C@H](COP(=O)(O)O)[C@@H](O)[C@@H]3O)c3ncnc1c23 :: active
CN1CCC[C@H]1CCO[C@](C)(c1ccccc1)c1ccc(Cl)cc1 :: inactive
CN1CCC(COc2cnc(-c3cccc(Cn4nc(-c5cccc(C#N)c5)ccc4=O)c3)nc2)CC1 :: inactive

----------
# Potency per entry
Test: qHTS of pediatric cancer cell lines to identify multiple opportunities for drug repurposing: Confirmatory screen for Saos-2 cells (AID 1347127); note: potency is the fitted concentration of half-maximal effect; nearly all actives have a fitted effect of over 60% in size
Details: Saos-2 osteosarcoma cell viability; series mostly up to 45.9 µM
Method: Drug repurposing or repositioning has been offered as a strategy for drug development in oncology programs. […] [1] Shen, M et al. Quantitative high-throughput phenotypic screening of pediatric cancer cell lines identifies multiple opportunities for drug repurposing. […] Cells were assayed in growth media at a density of 500-1,000 cells/well. […] After a 15 min incubation at room temperature, samples were analyzed for luminescence intensity using a ViewLux High-throughput CCD imager equipped with clear filters.
Inconclusive results are not listed. Active and inactive are the calls of the source. Calls follow the shape of the dose curve; as a rule, active = well fitted cell-killing curve with a large enough effect; inconclusive = small, poorly fitted or top-dose-only effect, or effect the other way; inactive = no such curve, though single readings can be large or run the other way.
Result Type: Potency

CCNC(=O)c1noc(-c2cc(C(C)C)c(O)cc2O)c1-c1ccc(CN2CCOCC2)cc1 :: 0.131 µM (active)
C[C@@]1(C(=O)Nc2ccc(F)nc2)CCCN1c1nc(Nc2cc(C3CC3)[nH]n2)c2cccn2n1 :: 1.85 µM (active)
COc1cc([C@@H]2c3cc4c(cc3[C@@H](O[C@@H]3O[C@@H]5CO[C@@H](C)O[C@@H]5[C@H](O)[C@@H]3O)[C@H]3COC(=O)[C@H]23)OCO4)cc(OC)c1O :: 5.22 µM (active)

----------
Test: Primary fluorescence-based thiol-reactive (MSTI) qHTS assay for identification of artifact compounds. (AID 1845221); note: nearly all actives have a fitted effect of over 65% in size
Conditions: MSTI thiol-reactivity probe, 1 h; series mostly up to 53.8 µM
Excerpt: PI: Alexander Tropsha Ph.D. UNC Eshelman School of Pharmacy University of North Carolina, Chapel Hill, North Carolina Hits from high-throughput screening (HTS) of chemical libraries are often false positives due to their interference with the assay detection technology. […] Using these curated datasets, we developed and validated several Quantitative Structure-Interference Relationship (QSIR) models to predict nuisance behavior. […]
Records with an inconclusive call do not appear. Activity calls are given as the source filed them. Calls follow the shape of the dose curve; as a rule, active = well fitted inhibition curve with a large enough effect; inconclusive = small, poorly fitted or top-dose-only effect; inactive = no such curve, though single readings can be large or run the other way.
Possible outcomes: TRUE = active, FALSE = inactive

COc1cc2nccc(Oc3ccc(NC(=O)Nc4cc(C)on4)c(Cl)c3)c2cc1OC :: FALSE
C[C@@H](N)c1ccc(C(=O)Nc2ccnc3[nH]ccc23)cc1 :: FALSE
O=C1C(c2c(O)[nH]c3ccccc23)=Nc2ccccc21 :: TRUE

----------
Assay: Quantitative High-Throughput drug screen in 47 multiple myeloma cell lines against the NCATS MIPE library collection: FR4_PLB cell viability assay (AID 1918924; note: nearly all actives have a fitted effect of over 35% in size; note: potency is the fitted concentration of half-maximal effect)
Details: FR4_PLB myeloma cells viability, CellTiter-Glo ATP, 48 h; series mostly up to 45.8 µM
Results filed as inconclusive are left out. Activity calls are given as the source filed them. Calls follow the shape of the dose curve; as a rule, active = well fitted cell-killing curve with a large enough effect; inconclusive = small, poorly fitted or top-dose-only effect, or effect the other way; inactive = no such curve, though single readings can be large or run the other way.
Result Type: Potency

CON(C)C(=O)N1N=C(c2cc(F)ccc2F)S[C@]1(CCCN)c1ccccc1 :: inactive
CO[C@H]1/C=C\O[C@@]2(C)Oc3c(C)c(O)c4c(O)c(c(C=NN5CCN(C6CCCC6)CC5)c(O)c4c3C2=O)NC(=O)C(C)=CC=C[C@H](C)[C@H](O)[C@@H](C)[C@@H](O)[C@@H](C)[C@H](OC(C)=O)[C@H]1C :: 0.372 µM (active)
O=C1CN2Cc3c(ccc(Cl)c3Cl)N=C2N1 :: inactive
C[C@@H](NC(=O)c1ncnc(N)c1Cl)c1ncc(C(=O)Nc2cc(C(F)(F)F)c(Cl)cn2)s1 :: 14.8 µM (active)
CNC(=O)[C@H](CC1=CN=C2C=CCC=C12)NC(=O)[C@@H](CC(=O)NO)CC(C)C :: inactive
NS(=O)(=O)c1cc(Cl)c(Cl)c(S(N)(=O)=O)c1 :: inactive
COc1nc(C)cnc1NS(=O)(=O)c1cccnc1-c1ccc(-c2nnco2)cc1 :: inactive
O=C1NC(=O)C(c2cnc3ccccn23)=C1c1cn2c3c(cccc13)CN(C(=O)N1CCOCC1)CC2 :: 0.0053 µM (active)
CCC(C)SSc1ncc[nH]1 (stereo not given) :: 16.6 µM (active)
CC(=O)OCC(=O)[C@@]12OC(C)(C)O[C@H]1C[C@H]1[C@@H]3C[C@H](F)C4=CC(=O)C=C[C@]4(C)[C@@]3(F)[C@@H](O)C[C@@]12C :: inactive
Cc1ccc(S(=O)(=O)Nc2nc3ccccc3nc2Nc2ccc3nsnc3c2)cc1 :: 6.45 µM (active)
O=C1C(CCC(O)c2ccc(F)cc2)C(c2ccc(O)cc2)N1c1ccc(F)cc1 (stereo not given) :: inactive
COC(=O)Nc1ccc(-c2nc(N3CCOCC3)c3cnn(C4CCN(C(=O)OC)CC4)c3n2)cc1 :: 1.05 µM (active)
COc1ccc2c(c1)CC[C@H]1[C@@H]2CC[C@]2(C)[C@@H](NCCCCCCN3C(=O)C=CC3=O)CC[C@H]12 :: inactive
NC(=O)c1ccc(N(C(N)=O)c2c(F)cccc2F)nc1-c1ccc(F)cc1F :: inactive
O=c1cc(-c2ccc(O)c(O)c2)oc2cc(O)cc(O)c12 :: inactive
COc1cc2ncn(-c3cc(OCc4ccccc4S(C)(=O)=O)c(C#N)s3)c2cc1OC :: inactive
N#CC(c1ccnc(NCCc2cccnc2)n1)c1nc2ccccc2s1 (stereo not given) :: 20.9 µM (active)
CCNC(=O)[C@H]1O[C@@H](n2cnc3c(N)nc(NCCc4ccc(CCC(=O)O)cc4)nc32)[C@H](O)[C@H]1O :: inactive
CNC(=O)c1ccc2c(C(=Nc3cccc(CN(C)C)c3)c3ccccc3)c(O)[nH]c2c1 :: inactive
CN1C(=O)C(Cc2c[nH]c3ccccc23)NC1=S (stereo not given) :: inactive
CS(=O)(=O)c1ccc(C2=C(c3ccccc3)C(=O)OC2)cc1 :: inactive
CCN(CC)CCCCNc1nc2cc(Cl)c(Cl)cc2nc1-c1ccc(-c2cccs2)s1 :: 10.5 µM (active)
Cc1ccc2c(c1)C(=O)[C@]1(O)CCN(c3ccccc3)C1=N2 :: inactive
O=C(O)Cc1cccc(OCCCN(Cc2cccc(C(F)(F)F)c2Cl)CC(c2ccccc2)c2ccccc2)c1 :: inactive
CCC(=C(CC)c1ccc(O)cc1)c1ccc(O)cc1 :: 8.33 µM (active)
CC[C@]1(O)C[C@H]2CN(CCC3=c4ccccc4=N[C]3[C@@](C(=O)OC)(c3cc4c(cc3OC)N(C)[C@H]3[C@@](O)(C(N)=O)[C@H](O)[C@]5(CC)C=CCN6CC[C@]43[C@@H]65)C2)C1 :: inactive
CC[C@H]1OC(=O)[C@H](C)[C@@H](O[C@H]2C[C@@](C)(OC)[C@@H](O)[C@H](C)O2)[C@H](C)[C@@H](O[C@@H]2O[C@H](C)C[C@H](N(C)C)[C@H]2O)[C@](C)(O)C[C@H](C)C(=NOCOCCOC)[C@H](C)[C@@H](O)[C@]1(C)O :: inactive
CC(C)C[C@@H](N)[C@H](O)C(=O)N[C@H](C(=O)N[C@H](C(=O)N[C@@H](CC(=O)O)C(=O)O)C(C)C)C(C)C :: inactive
CCCCC[C@H](O)C=C[C@H]1[C@H](O)CC(=O)[C@H]1CC=CCCCC(=O)O :: inactive
C[C@@H](N)c1ccc(C(=O)Nc2ccnc3[nH]ccc23)cc1 :: 26.4 µM (active)
Cc1ccccc1C(=O)c1ccc(Nc2ccc(Br)cc2N)cc1Cl :: 6.62 µM (active)
N#CC(c1ccc(Cl)cc1)c1c(Cl)cc(-n2ncc(=O)[nH]c2=O)cc1Cl (stereo not given) :: inactive
O=C(Nc1ncc(SCCN2CCCC2)s1)[C@]1(c2ccc(S(=O)(=O)C3CC3)cc2)C[C@@H]1C1CCCCC1 :: 18.7 µM (active)
Cn1cc(-c2ccc3nnc(Sc4ccc5ncccc5c4)n3n2)cn1 :: inactive
